- Method: Liver Microsome Stability Assay (human)
- Experimental conditions: human liver microsomes, with NADPH, 1.0 uM compound
Give 1 when the value for Liver Microsome Stability (Multiple Species): Human - % Remaining after 30 min w/NADPH is at least 2%. Give 0 when it is less.

# count of solved cases: 8
> print(dat)
                                   compound  group
1  Cc1cc(Cn2cccc2C(=O)Nc2nc([C@H]3CCCN3c3ccccc3)cs2)ccn1      0
2  Cc1nc(/C=C/c2csc(NC(=O)c3cccn3Cc3ccncc3)n2)co1      0
3  CC(=O)N1CCC(Oc2ccc(N3CCC[C@@H]3c3csc(NC(=O)c4cccn4Cc4ccnc(F)c4)n3)cc2Cl)CC1      1
4  O=C(Nc1ccccn1)c1csc(NC(=O)c2cccn2Cc2ccncc2)n1      1
5  [2H]c1cc([2H])cc(N2CCC[C@@H]2c2csc(NC(=O)c3cccn3Cc3ccnc(F)c3)n2)c1      1
6  O=C(Nc1nc([C@H]2CCCN2c2ccc(Cl)cc2)cs1)c1cccn1Cc1ccncc1      1
7  CC(=O)NCc1ccc(N2CCC[C@@H]2c2csc(NC(=O)c3cccn3Cc3ccnc(F)c3)n2)cc1      0
8  CCc1ccc(N2CCC[C@@H]2c2csc(NC(=O)c3cccn3CC3CCOCC3)n2)nc1      0

Task: Is reported Liver Microsome Stability (Multiple Species): Human - % Remaining after 30 min w/NADPH greater than or equal to 2% here: O=C(Nc1nc(/C=C/c2cn(CCO)cn2)cs1)c1cccn1Cc1ccncc1
Output: 0

Task: Could you verify whether the entry CC(c1ccncc1)n1cccc1C(=O)Nc1nc([C@H]2CCCN2c2ccccc2)cs1 (stereo partly shown) shows Liver Microsome Stability (Multiple Species): Human - % Remaining after 30 min w/NADPH of no less than 2%?
Output: 1

Task: Hi team, for O=C(Nc1nc([C@H]2CCCN2c2cccnn2)cs1)c1cccn1Cc1ccncc1 , is the recorded Liver Microsome Stability (Multiple Species): Human - % Remaining after 30 min w/NADPH at or above 2%?
Output: 0

Task: Please tell me: is the compound C[C@H](N)c1ccc(N2CCC[C@@H]2c2csc(NC(=O)c3cccn3Cc3ccnc(F)c3)n2)cc1 at or over 2% in terms of Liver Microsome Stability (Multiple Species): Human - % Remaining after 30 min w/NADPH?
Output: 1

Task: Dear colleague, could you confirm whether CCc1ccc(N2CCC[C@@H]2c2csc(NC(=O)c3cccn3Cc3ccncc3)n2)cc1 has Liver Microsome Stability (Multiple Species): Human - % Remaining after 30 min w/NADPH at or above 2%?
Output: 1

Task: Please tell me: is the compound C/C(=C\c1csc(NC(=O)c2cccn2Cc2ccncc2)n1)c1ccc(OC(F)(F)F)cn1 at or over 2% in terms of Liver Microsome Stability (Multiple Species): Human - % Remaining after 30 min w/NADPH?
Output: 1

Task: Entry O=C(Nc1nc([C@H]2CCCN2c2ccc(C3(O)CCC3)cc2)cs1)c1cccn1Cc1ccnc(F)c1 : is its Liver Microsome Stability (Multiple Species): Human - % Remaining after 30 min w/NADPH no less than 2%?
Output: 1

Task: Hi team, for CC(=O)N1CCC(Oc2ccc(N3CCC[C@@H]3c3csc(NC(=O)c4cc(C)cn4Cc4ccnc(F)c4)n3)cc2)CC1 , is the recorded Liver Microsome Stability (Multiple Species): Human - % Remaining after 30 min w/NADPH at or above 2%?
Output: 1
